# Lookup of reported pIC50 keyed by entry
System: ZR-75-1 H3K23 Acetylation
measurement.description: Histone H3 acetylation assay (H3K23 acetylation in ZR-75-1 cells)
Assay type: cell-based
cond: Homo sapiens, 72 hours incubation, Odyssey CLx fluorescence, read-out: ZR-75-1 H3K23 Acetylation Inhibition IC50
pIC50: −log10 of the molar value.
quantity.name: pIC50

INSERT INTO assay_data (compound, target_of_assay, quantity_name, experimental_value) VALUES
  ('COc1ccc2c(c1S(=O)(=O)Nc1noc3cc(Cn4cccn4)cc(OC)c13)OCC(F)(F)CO2', 'ZR-75-1 H3K23 Acetylation', 'pIC50', 7.90),
  ('COc1ccc2c(c1S(=O)(=O)Nc1noc3cc(Cn4cccn4)c(F)c(OC)c13)OCC1CC21 (single isomer, unassigned) [Compound 30-P1]', 'ZR-75-1 H3K23 Acetylation', 'pIC50', 9.52),
  ('COc1cc2c(cc1S(=O)(=O)Nc1noc3cc(Cn4cccn4)cc(OC)c13)OCCCO2', 'ZR-75-1 H3K23 Acetylation', 'pIC50', 8.07),
  ('CCc1c(Cn2cccn2)cc2onc(NS(=O)(=O)c3c(OC)ccc4c3OCC3CC43)c2c1OC (centres unmarked)', 'ZR-75-1 H3K23 Acetylation', 'pIC50', 7.57),
  ('COc1ccc2c(c1S(=O)(=O)Nc1noc3cc(Cn4cccn4)cc(OC)c13)OCC21COC1', 'ZR-75-1 H3K23 Acetylation', 'pIC50', 8.38),
  ('COc1ccc2c(c1S(=O)(=O)Nc1noc3cc(Cn4cccn4)c(OC(F)F)cc13)OCCCO2', 'ZR-75-1 H3K23 Acetylation', 'pIC50', 7.46),
  ('COc1ccc2c(c1S(=O)(=O)Nc1noc3cc(Cn4cccn4)c(F)c(OC)c13)OCC1CC21 (centres unmarked) [Compound 30]', 'ZR-75-1 H3K23 Acetylation', 'pIC50', 9.10),
  ('COc1cc2c(NS(=O)(=O)c3c(OC)ccc4c3OCC3CC43)noc2cc1Cn1cccn1 (single isomer, unassigned)', 'ZR-75-1 H3K23 Acetylation', 'pIC50', 9.70),
  ('COc1ccc2c(c1S(=O)(=O)Nc1noc3cc(Cn4cccn4)c4c(c13)OCC4)OCC1CC21 (centres unmarked)', 'ZR-75-1 H3K23 Acetylation', 'pIC50', 8.92),
  ('COc1ccc2c(c1S(=O)(=O)Nc1noc3cc(Cn4cccn4)cc(OC)c13)OC1CC1O2 (centres unmarked)', 'ZR-75-1 H3K23 Acetylation', 'pIC50', 8.19),
  ('COc1ccc2c(c1S(=O)(=O)Nc1noc3cc(Cn4cccn4)c4c(c13)OCC4)OCC21CC1', 'ZR-75-1 H3K23 Acetylation', 'pIC50', 8.43),
  ('COc1ccc2c(c1S(=O)(=O)Nc1noc3cc(Cn4cccn4)cc(OC)c13)OCC1CC21 (centres unmarked)', 'ZR-75-1 H3K23 Acetylation', 'pIC50', 9.30),
  ('COc1ccc2c(c1S(=O)(=O)Nc1noc3cc(Cn4cccn4)c(C4CC4)cc13)OCCCO2', 'ZR-75-1 H3K23 Acetylation', 'pIC50', 7.94),
  ('COc1ccc2c(c1S(=O)(=O)Nc1noc3cc(Cn4cccn4)c(F)cc13)OCC1CC21 (single isomer, unassigned)', 'ZR-75-1 H3K23 Acetylation', 'pIC50', 9.40),
  ('COc1ccc2c(c1S(=O)(=O)Nc1noc3cc(Cn4cccn4)cc(OC)c13)OC[C@H]1C[C@@H]21 [Compound 5-P1]', 'ZR-75-1 H3K23 Acetylation', 'pIC50', 8.72),
  ('COc1cc2c(cc1S(=O)(=O)Nc1noc3cc(Cn4cccn4)cc(OC)c13)COCCO2', 'ZR-75-1 H3K23 Acetylation', 'pIC50', 8.68),
  ('COc1ccc2c(c1S(=O)(=O)Nc1noc3cc(Oc4nccs4)cc(OC)c13)OC[C@@H]1C[C@H]21', 'ZR-75-1 H3K23 Acetylation', 'pIC50', 8.47);

====

IC50 tested on UniProt:Q92794: recorded values
quantity.name: IC50 (nM)

INSERT INTO assay_data (molecule, experimental_value) VALUES
  ('COc1ccc2c(c1S(=O)(=O)Nc1noc3cc(Cn4cccn4)cc(OC)c13)OCC21CC1 [Compound 3]', 1.8),
  ('COc1cc2c(cc1S(=O)(=O)Nc1noc3cc(Cn4cccn4)cc(OC)c13)OCCOC2 [Compound 8]', 2.7),
  ('COc1ccc2c(c1S(=O)(=O)Nc1noc3cc(Cn4cccn4)c(F)c(OC)c13)OCC1CC21 (stereo not shown) [Compound 30]', 0.8),
  ('CCc1c(Cn2cccn2)cc2onc(NS(=O)(=O)c3c(OC)ccc4c3OCC3CC43)c2c1OC (stereo not shown) [Compound 27]', 1.3);

====

# Lookup of reported IC50 keyed by entry
target.of.assay: KAT6A (Homo sapiens, UniProt Q92794)
Sequence (Q92794 488-778 limits assumed): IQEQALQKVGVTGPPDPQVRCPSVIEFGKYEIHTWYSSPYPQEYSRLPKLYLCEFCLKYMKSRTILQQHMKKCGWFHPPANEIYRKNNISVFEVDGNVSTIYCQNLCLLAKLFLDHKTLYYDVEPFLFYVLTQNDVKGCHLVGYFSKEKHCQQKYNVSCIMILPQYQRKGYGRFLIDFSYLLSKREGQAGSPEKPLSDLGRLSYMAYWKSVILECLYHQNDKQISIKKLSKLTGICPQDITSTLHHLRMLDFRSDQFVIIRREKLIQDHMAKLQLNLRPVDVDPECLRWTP
quantity.name: IC50 (nM)

INSERT INTO assay_data (compound, experimental_value) VALUES
  ('COc1ccc2c(c1S(=O)(=O)Nc1noc3cc(Cn4cccn4)c(F)c(OC)c13)OCC21CC1 [Compound 31]', 1.3),
  ('COc1cc(Cn2cccn2)cc2onc(NS(=O)(=O)c3cccc4c3OCCCO4)c12 [Compound 1]', 12.9),
  ('COc1ccc2c(c1S(=O)(=O)Nc1noc3cc(Cn4cccn4)c(F)cc13)OCC1CC21 (single isomer, unassigned) [Compound 34]', 1.2),
  ('COc1ccc2c(c1S(=O)(=O)Nc1noc3cc(Cn4cccn4)c(C)c(OC)c13)OCC1CC21 (stereo not shown) [Compound 24]', 3.1);

====

Test system: ZR-75-1 cells
measurement.description: ZR-75-1 cell proliferation assay (CellTiter-Glo)
Format: cell-based
cond: Homo sapiens, ZR-75-1, 240 h, total culture period of 10 days, read-out: ZR-75-1 Proliferation Inhibition IC50
pIC50: −log10 of the molar value.
quantity.name: pIC50

INSERT INTO results (compound, experimental_value) VALUES
  ('COc1cc2c(cc1S(=O)(=O)Nc1noc3cc(Cn4cccn4)cc(OC)c13)OCCCO2 [Compound 7]', 8.62),
  ('COc1ccc2c(c1S(=O)(=O)Nc1noc3cc(Cn4cccn4)cc(OC)c13)OCCCO2 [Compound 2]', 8.49),
  ('[2H]C([2H])(c1cc(OC)c2c(NS(=O)(=O)c3c(OC)ccc4c3OC[C@@H]3C[C@H]43)noc2c1)n1cccn1 [Compound 42]', 10.00),
  ('COc1ccc2c(c1S(=O)(=O)Nc1noc3cc(Cn4cccn4)c(F)cc13)OCC1CC21 (single isomer, unassigned) [Compound 34]', 10.40);

====

target.of.assay: KAT6B (Homo sapiens)
Sequence (Q8WYB5 whole entry): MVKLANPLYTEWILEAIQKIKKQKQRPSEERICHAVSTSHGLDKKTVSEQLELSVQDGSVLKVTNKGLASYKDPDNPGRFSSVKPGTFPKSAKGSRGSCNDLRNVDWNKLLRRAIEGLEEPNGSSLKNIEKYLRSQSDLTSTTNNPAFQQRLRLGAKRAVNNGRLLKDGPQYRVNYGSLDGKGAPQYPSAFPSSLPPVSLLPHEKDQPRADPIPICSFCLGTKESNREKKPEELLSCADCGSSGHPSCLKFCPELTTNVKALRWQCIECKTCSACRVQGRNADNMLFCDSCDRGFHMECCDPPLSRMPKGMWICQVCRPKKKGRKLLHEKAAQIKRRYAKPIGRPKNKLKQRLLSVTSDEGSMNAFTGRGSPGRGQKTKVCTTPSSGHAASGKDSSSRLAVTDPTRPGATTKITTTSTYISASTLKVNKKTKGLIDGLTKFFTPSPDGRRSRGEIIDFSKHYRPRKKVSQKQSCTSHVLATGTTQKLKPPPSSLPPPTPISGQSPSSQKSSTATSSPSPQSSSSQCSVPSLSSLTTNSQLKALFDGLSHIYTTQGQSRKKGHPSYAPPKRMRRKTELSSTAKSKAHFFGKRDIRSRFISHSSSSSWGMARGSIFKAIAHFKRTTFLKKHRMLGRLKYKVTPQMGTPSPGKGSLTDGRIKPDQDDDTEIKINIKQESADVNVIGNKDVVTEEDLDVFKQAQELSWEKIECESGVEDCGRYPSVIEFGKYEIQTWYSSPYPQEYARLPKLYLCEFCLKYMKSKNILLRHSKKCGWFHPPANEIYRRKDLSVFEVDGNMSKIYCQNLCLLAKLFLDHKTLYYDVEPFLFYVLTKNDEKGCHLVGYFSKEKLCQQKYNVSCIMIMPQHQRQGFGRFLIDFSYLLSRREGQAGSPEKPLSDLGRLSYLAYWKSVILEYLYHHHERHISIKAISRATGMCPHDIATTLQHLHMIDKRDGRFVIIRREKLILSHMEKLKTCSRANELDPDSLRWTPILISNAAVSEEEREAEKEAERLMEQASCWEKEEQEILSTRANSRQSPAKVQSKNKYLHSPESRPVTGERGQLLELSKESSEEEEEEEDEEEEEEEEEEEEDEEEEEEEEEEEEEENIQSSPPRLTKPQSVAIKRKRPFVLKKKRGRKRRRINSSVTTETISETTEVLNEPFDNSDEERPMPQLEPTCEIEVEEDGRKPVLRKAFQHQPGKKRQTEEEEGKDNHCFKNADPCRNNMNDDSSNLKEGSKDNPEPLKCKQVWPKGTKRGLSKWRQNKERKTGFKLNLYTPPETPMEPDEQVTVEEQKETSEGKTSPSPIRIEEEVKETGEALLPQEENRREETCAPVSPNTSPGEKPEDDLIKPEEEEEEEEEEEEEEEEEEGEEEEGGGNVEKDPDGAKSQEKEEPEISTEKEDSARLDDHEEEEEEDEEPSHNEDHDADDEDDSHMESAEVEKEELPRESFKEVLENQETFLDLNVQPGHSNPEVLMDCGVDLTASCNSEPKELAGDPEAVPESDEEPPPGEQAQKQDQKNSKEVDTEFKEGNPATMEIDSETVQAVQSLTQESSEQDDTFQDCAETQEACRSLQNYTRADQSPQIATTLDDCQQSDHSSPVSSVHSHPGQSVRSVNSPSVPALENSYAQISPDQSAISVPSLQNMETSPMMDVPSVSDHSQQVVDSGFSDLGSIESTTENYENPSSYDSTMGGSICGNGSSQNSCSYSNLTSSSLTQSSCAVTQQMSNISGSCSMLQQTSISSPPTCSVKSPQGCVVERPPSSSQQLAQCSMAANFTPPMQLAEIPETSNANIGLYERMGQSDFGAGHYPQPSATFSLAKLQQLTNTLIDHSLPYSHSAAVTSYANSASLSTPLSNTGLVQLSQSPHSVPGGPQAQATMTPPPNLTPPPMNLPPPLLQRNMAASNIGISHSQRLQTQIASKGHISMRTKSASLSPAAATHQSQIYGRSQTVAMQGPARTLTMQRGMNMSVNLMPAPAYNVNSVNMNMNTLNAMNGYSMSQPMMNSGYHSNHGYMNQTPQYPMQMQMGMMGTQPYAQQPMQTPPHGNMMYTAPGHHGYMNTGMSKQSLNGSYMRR
We'd kindly ask you to apply these IC50 classes: low (below 2 nM), mid (2 nM to below 20 nM), high (20 nM or more)

INSERT INTO results (compound, target_of_assay, category) VALUES
  ('COc1ccc2c(c1S(=O)(=O)Nc1noc3cc(Cn4cccn4)c4c(c13)OCC4)OCCCO2 [Compound 35]', 'KAT6B (Homo sapiens)', 'high'),
  ('COc1ccc2c(c1S(=O)(=O)Nc1noc3cc(Cn4cccn4)cc(OC)c13)OC[C@H]1C[C@@H]21 [Compound 5-P1]', 'KAT6B (Homo sapiens)', 'mid'),
  ('COc1cc2c(cc1S(=O)(=O)Nc1noc3cc(Cn4cccn4)cc(OC)c13)OCCOC2 [Compound 8]', 'KAT6B (Homo sapiens)', 'high'),
  ('COc1cc2c(cc1S(=O)(=O)Nc1noc3cc(Cn4cccn4)cc(OC)c13)COCCO2 [Compound 9]', 'KAT6B (Homo sapiens)', 'mid'),
  ('[2H]C([2H])(c1cc(OC)c2c(NS(=O)(=O)c3c(OC)ccc4c3OCCCO4)noc2c1)n1cccn1 [Compound 43]', 'KAT6B (Homo sapiens)', 'high'),
  ('COc1ccc2c(c1S(=O)(=O)Nc1noc3cc(Cn4cccn4)c(F)c(OC)c13)OCC1CC21 (stereo not drawn) [Compound 30]', 'KAT6B (Homo sapiens)', 'low'),
  ('COc1cc2c(NS(=O)(=O)c3c(OC)ccc4c3OCC3CC43)noc2cc1Cn1cccn1 (single isomer, unassigned) [Compound 33]', 'KAT6B (Homo sapiens)', 'low'),
  ('COc1ccc2c(c1S(=O)(=O)Nc1noc3cc(Cn4cccn4)cc(OC)c13)OCCCO2 [Compound 2]', 'KAT6B (Homo sapiens)', 'high'),
  ('CCc1c(Cn2cccn2)cc2onc(NS(=O)(=O)c3c(OC)ccc4c3OCCCO4)c2c1OC [Compound 26]', 'KAT6B (Homo sapiens)', 'high'),
  ('[2H]C([2H])([2H])Oc1cc(Cn2cccn2)cc2onc(NS(=O)(=O)c3c(OC)ccc4c3OC[C@@H]3C[C@H]43)c12 [Compound 45]', 'KAT6B (Homo sapiens)', 'low'),
  ('COc1cc2c(cc1S(=O)(=O)Nc1noc3cc(Cn4cccn4)cc(OC)c13)C1(CC1)CO2 [Compound 4]', 'KAT6B (Homo sapiens)', 'mid'),
  ('COc1ccc2c(c1S(=O)(=O)Nc1noc3cc(Cn4cccn4)c(F)cc13)OCC1CC21 (single isomer, unassigned) [Compound 34]', 'KAT6B (Homo sapiens)', 'mid'),
  ('COc1ccc2c(c1S(=O)(=O)Nc1noc3cc(Cn4cccn4)c(F)c(OC)c13)OCC21CC1 [Compound 31]', 'KAT6B (Homo sapiens)', 'mid'),
  ('COc1ccc2c(c1S(=O)(=O)Nc1noc3cc(Oc4nccs4)cc(OC)c13)OC[C@@H]1C[C@H]21 [Compound 47]', 'KAT6B (Homo sapiens)', 'low'),
  ('COc1ccc2c(c1S(=O)(=O)Nc1noc3cc(Cn4cccn4)cc(OC)c13)OC[C@@H]1C[C@H]21 [Compound 5-P2]', 'KAT6B (Homo sapiens)', 'low'),
  ('[2H]C([2H])(c1cc(OC)c2c(NS(=O)(=O)c3c(OC)ccc4c3OC[C@@H]3C[C@H]43)noc2c1)n1cccn1 [Compound 42]', 'KAT6B (Homo sapiens)', 'low'),
  ('COc1ccc2c(c1S(=O)(=O)Nc1noc3cc(Cn4cccn4)cc(OC)c13)OCC21CC1 [Compound 3]', 'KAT6B (Homo sapiens)', 'mid'),
  ('COc1ccc2c(c1S(=O)(=O)Nc1noc3cc(Cn4cccn4)cc(OC)c13)OCC(F)(F)CO2 [Compound 11]', 'KAT6B (Homo sapiens)', 'high'),
  ('COc1ccc2c(c1S(=O)(=O)Nc1noc3cc(Cn4cccn4)c(C4CC4)cc13)OCCCO2 [Compound 14]', 'KAT6B (Homo sapiens)', 'mid'),
  ('COc1cc2c(cc1S(=O)(=O)Nc1noc3cc(Cn4cccn4)cc(OC)c13)C1CC1CO2 (stereo not drawn) [Compound 6]', 'KAT6B (Homo sapiens)', 'mid'),
  ('COc1ccc2c(c1S(=O)(=O)Nc1noc3cc(Cn4cccn4)cc(OC)c13)OCCCN2C [Compound 41]', 'KAT6B (Homo sapiens)', 'high'),
  ('COc1ccc2c(c1S(=O)(=O)Nc1noc3cc(Cn4cccn4)c(F)c(OC)c13)OCC1CC21 (single isomer, unassigned) [Compound 30-P1]', 'KAT6B (Homo sapiens)', 'low'),
  ('COc1ccc2c(c1S(=O)(=O)Nc1noc3cc(Cn4cccn4)c4c(c13)OCCC4)OCCCO2 [Compound 22]', 'KAT6B (Homo sapiens)', 'mid'),
  ('COc1ccc2c(c1S(=O)(=O)Nc1noc3cc(Cn4cccn4)c(F)c(OC)c13)OCCCO2 [Compound 29]', 'KAT6B (Homo sapiens)', 'high');

Measured values drawn from patent EP4741389A1 for this set.
